All figures here come from patent US5846978A.

- targetDesc: HIV protease (Human immunodeficiency virus type 1 group M subtype B, UniProt P12497)
pIC50: −log10 of the molar value.
Quick rule: pIC50 of at least 5 means satisfied, below that means not satisfied.

CC(C)CN1CC2(Cc3ccccc3)CC(=O)CC(C(O)Cc3ccccc3N)(C1)C2O (centres unmarked) :: satisfied
CC(C)CN1CC2(CO)CC(=O)CC(Cc3ccc(Br)cc3)(C1)C2O (centres unmarked) :: not satisfied
CCCCC(O)C12CC(=O)CC(Cc3ccccc3)(CN(CC(C)C)C1)C2O (centres unmarked) :: not satisfied
O=C1CC2(Cc3ccccc3)CN(Cc3ccccc3)CC(C(O)CN3CCCCS3(=O)=O)(C1)C2O (centres unmarked) :: not satisfied

Turning now to a further record.
## Input Assess whether reported pIC50 for O=C1CC2(Cc3ccccc3)CN(CC3CCCC3)CC(C(O)Cc3ccccc3)(C1)C2O (centres unmarked) sits at 5 or higher.
## Output satisfied

----------
- targetDesc: HIV protease (Human immunodeficiency virus type 1 group M subtype B, UniProt P12497)
- Construct: made in house; host or cells: Escherichia coli
- protocolDescription: Assay for Inhibition of Microbial Expressed HIV Protease (peptide substrate cleavage, HPLC)
- Type: biochemical
- experimentalParameters: pH 5.5
valueType: inhibition at 250 µM (%)
I only need the number, in %, no unit after it.

## Input // fetch HIV protease (Human immunodeficiency virus type 1 group M subtype B, UniProt P12497) inhibition at 250 µM for CC(C)CN1CC2(CO)CC(=O)CC(Cc3ccccc3)(C1)C2O (centres unmarked)
## Output 63

## Input // fetch HIV protease (Human immunodeficiency virus type 1 group M subtype B, UniProt P12497) inhibition at 250 µM for O=C1CC2(CO)CN(CC3CC3)CC(Cc3ccccc3)(C1)C2O (centres unmarked)
## Output 56

## Input // fetch HIV protease (Human immunodeficiency virus type 1 group M subtype B, UniProt P12497) inhibition at 250 µM for O=C1CC2(CO)CN(Cc3ccccc3)CC(Cc3ccccc3)(C1)C2O (centres unmarked)
## Output 82

## Input // fetch HIV protease (Human immunodeficiency virus type 1 group M subtype B, UniProt P12497) inhibition at 250 µM for CC(C)(C)CN1CC2(CO)CC(=O)CC(Cc3ccccc3)(C1)C2O (centres unmarked)
## Output 69

## Input // fetch HIV protease (Human immunodeficiency virus type 1 group M subtype B, UniProt P12497) inhibition at 250 µM for CC(C)CN1CC2(CO)CC(=O)CC(Cc3ccc(Br)cc3)(C1)C2O (centres unmarked)
## Output 71

----------
Recorded measurements of inhibition at 100 µM, one per entry
- targetDesc: HIV protease (Human immunodeficiency virus type 1 group M subtype B, UniProt P12497)
- Construct: made in house; host or cells: Escherichia coli
- protocolDescription: Assay for Inhibition of Microbial Expressed HIV Protease (peptide substrate cleavage, HPLC)
- Assay type: biochemical
- experimentalParameters: pH 5.5
I only need the number, in %, no unit after it.

Here is how some molecules turned out for inhibition at 100 µM.
O=C1CC2(Cc3ccccc3)CN(CC3CCCO3)CC(C(O)Cc3ccccc3)(C1)C2O (stereo not shown) :: 84
CC(C)CN1CC2(Cc3ccccc3)CC(=O)CC(C(O)Cc3ccccc3N)(C1)C2O (stereo not shown) :: 93
CC(C)CN1CC2(CO)CC(=O)CC(Cc3ccc(-c4ccco4)cc3)(C1)C2O (stereo not shown) :: 62

Kindly consider the entry below.
## Input // fetch HIV protease (Human immunodeficiency virus type 1 group M subtype B, UniProt P12497) inhibition at 100 µM for O=C1CC2(Cc3ccccc3)CN(Cc3ccccc3)CC(C(O)CN3CCCCS3(=O)=O)(C1)C2O (stereo not shown)
## Output 69

----------
These records show IC50 for HIV protease (Human immunodeficiency virus type 1 group M subtype B, UniProt P12497).
I only need the number, in µM, no unit after it.

Here is how some compounds turned out for IC50.
CC(C)CN1CC2(Cc3ccccc3)CC(=O)CC(C(O)Cc3ccccc3)(C1)C2O (centres unmarked) [Compound 16] :: 50
O=C1CC2(CO)CN(CC3CCCC3)CC(Cc3ccccc3)(C1)C2O (centres unmarked) [Compound 9] :: 89
O=C1CC2(Cc3ccccc3)CN(CC3CCCO3)CC(C(O)Cc3ccccc3)(C1)C2O (centres unmarked) [Compound 22] :: 10.4
CC(C)(C)N1CC2(CO)CC(=O)CC(Cc3ccccc3Br)(C1)C2O (centres unmarked) [Compound 11] :: 30

Kindly consider the entry below.
## Input So what's the measured IC50 for this one? CC(C)C[C@@H](CO)CN1CC2(CO)CC(=O)CC(Cc3ccccc3)(C1)C2O (some centres unmarked) [Compound 13]
## Output 44

----------
- targetDesc: HIV protease (Human immunodeficiency virus type 1 group M subtype B)
- Construct: made in house; host or cells: Escherichia coli
- protocolDescription: Assay for Inhibition of Microbial Expressed HIV Protease (peptide substrate cleavage, HPLC)
- Format: biochemical
- experimentalParameters: pH 5.5
valueType: inhibition at 100 µM (%)
I only need the number, in %, no unit after it.

## Input So what's the measured inhibition at 100 µM for this one? CC(C)(C)N1CC2(CO)CC(=O)CC(Cc3ccc4ccccc4c3)(C1)C2O (stereo not shown)
## Output 43

## Input So what's the measured inhibition at 100 µM for this one? CC(C)(C)N1CC2(CO)CC(=O)CC(Cc3ccccc3Br)(C1)C2O (stereo not shown)
## Output 76

## Input So what's the measured inhibition at 100 µM for this one? COc1ccccc1-c1ccc(CC23CC(=O)CC(CO)(CN(CC(C)C)C2)C3O)cc1 (stereo not shown)
## Output 56

## Input So what's the measured inhibition at 100 µM for this one? CCCCC(O)C12CC(=O)CC(Cc3ccccc3)(CN(CC(C)C)C1)C2O (stereo not shown)
## Output 73
